All values here come from patent US6653508B2.

This section presents compounds with their documented inhibition in vivo at 10 mg/kg values.
test system: phenylquinone-induced writhing reactions in mice; assay: Phenylquinone-induced writhing test in mice; format: in vivo; conditions: Mus musculus, iv; male mice, 10 mg/kg i.v.; phenylquinone i.p. 10 minutes after test substance; writhing counted 5-20 minutes after phenylquinone
Counter-ions that a name gives are not always drawn.
Quantity Measured: inhibition in vivo at 10 mg/kg

[[record]]
compound = "CSc1cccc(C(=O)C(Cc2ccccc2)CN(C)C)c1.Cl (racemic) [Example 22, hydrochloride]"
quantity_measured = "inhibition in vivo at 10 mg/kg"
observed_measurement = "62%"

[[record]]
compound = "CN(C)CC(Cc1ccccc1)C(=O)c1cc(Cl)ccc1Cl (racemic) [Example 13, hydrochloride]"
quantity_measured = "inhibition in vivo at 10 mg/kg"
observed_measurement = "70%"

[[record]]
compound = "COc1ccc(OC)c(C(=O)C(Cc2ccccc2)CN(C)C)c1.Cl (racemic) [Example 8, hydrochloride]"
quantity_measured = "inhibition in vivo at 10 mg/kg"
observed_measurement = "92%"

[[record]]
compound = "CN(C)CC(Cc1ccccc1)C(=O)c1cccc(C#N)c1.Cl (racemic) [Example 26, hydrochloride]"
quantity_measured = "inhibition in vivo at 10 mg/kg"
observed_measurement = "79%"

[[record]]
compound = "CN(C)CC(Cc1ccccc1)C(=O)c1cccc(OCc2ccccc2)c1 (racemic) [Example 2, hydrochloride]"
quantity_measured = "inhibition in vivo at 10 mg/kg"
observed_measurement = "85%"

